Assay: in vivo
Conditions: rat, po, 10 mg/kg
Quantity Measured: bioavailability (%)

Notebook: CO[C@@H]1COCC[C@@H]1N[C@@H]1C[C@H]2OCC[C@@]2(C(=O)N2CCc3ncc(C(F)(F)F)cc3C2)C1 , bioavailability read as 94

Lab note: measured bioavailability of CO[C@H]1COCC[C@H]1N[C@@H]1C[C@H]2OCC[C@@]2(C(=O)N2CCc3ncc(C(F)(F)F)cc3C2)C1 was 91

* * *

Assay: in vivo
Conditions: rat, plasma
Quantity Measured: AUC(0-t) (µg·h/mL)

(A) CO[C@@H]1COCC[C@@H]1N[C@@H]1C[C@H]2OCC[C@@]2(C(=O)N2CCc3ncc(C(F)(F)F)cc3C2)C1
(B) CO[C@H]1COCC[C@H]1N[C@@H]1C[C@H]2OCC[C@@]2(C(=O)N2CCc3ncc(C(F)(F)F)cc3C2)C1
Query string: Out of A and B , name the one with the higher AUC(0-t). When you have decided, please share the label of that item.
Result string: A
(A: 9.76 µg·h/mL, B: 3.54 µg·h/mL)

* * *

Experiment: in vivo
Settings: rat
Quantity Measured: half-life (h)

Consider CO[C@H]1COCC[C@H]1N[C@@H]1C[C@H]2OCC[C@@]2(C(=O)N2CCc3ncc(C(F)(F)F)cc3C2)C1 . Its measured half-life is 3.5

Consider CO[C@@H]1COCC[C@@H]1N[C@@H]1C[C@H]2OCC[C@@]2(C(=O)N2CCc3ncc(C(F)(F)F)cc3C2)C1 . Its measured half-life is 3.8

* * *

Assay: in vivo
Conditions: rat, iv, 2 mg/kg
Quantity Measured: Vd (L/kg)

(1) CO[C@@H]1COCC[C@@H]1N[C@@H]1C[C@H]2OCC[C@@]2(C(=O)N2CCc3ncc(C(F)(F)F)cc3C2)C1
(2) CO[C@H]1COCC[C@H]1N[C@@H]1C[C@H]2OCC[C@@]2(C(=O)N2CCc3ncc(C(F)(F)F)cc3C2)C1
Query string: // max by Vd over [ 1 , 2 ] Use the label to indicate which entry you chose.
Result string: 2
(2: 5 L/kg, 1: 3.2 L/kg)

* * *

Assay: in vivo
Conditions: rat, po, 10 mg/kg
Quantity Measured: Cmax (ng/mL)

(P) CO[C@H]1COCC[C@H]1N[C@@H]1C[C@H]2OCC[C@@]2(C(=O)N2CCc3ncc(C(F)(F)F)cc3C2)C1
(Q) CO[C@@H]1COCC[C@@H]1N[C@@H]1C[C@H]2OCC[C@@]2(C(=O)N2CCc3ncc(C(F)(F)F)cc3C2)C1
Query string: Could you please tell me which of these two has the higher Cmax: P or Q ? Write down the label attached to your selection.
Result string: Q
(Q: 2200 ng/mL, P: 632 ng/mL)

* * *

Experiment: Plasma concentration in guinea pig at 10 mg/kg
Type: ADME, organism-based, Cavia porcellus
Design: dose 10 mg/kg
Conditions: in vivo
Quantity Measured: concentration (µM)

Data point: CO[C@H]1COCC[C@H]1N[C@@H]1C[C@H]2OCC[C@@]2(C(=O)N2CCc3ncc(C(F)(F)F)cc3C2)C1 ; concentration = 18

# concentration (compound: CO[C@@H]1COCC[C@@H]1N[C@@H]1C[C@H]2OCC[C@@]2(C(=O)N2CCc3ncc(C(F)(F)F)cc3C2)C1 ) is 23
